Measured property: melting point

Some solved entries appear below for comparison.
molecule="CCCCC#CCCOc1ccc(/C=C/C(=O)Nc2ccccc2C(=O)O)cc1OC [Analogue 41]" measured_property="melting point" experimental_result="169 to 170 °C"
molecule="COc1cc(/C=C/C(=O)Nc2ccccc2C(=O)O)ccc1OCc1cccnc1 [Analogue 49]" measured_property="melting point" experimental_result="245 to 251 °C"
molecule="COc1ccc(/C=C/C(=O)Nc2cc3ccccc3cc2C(=O)O)cc1OC [Analogue 8]" measured_property="melting point" experimental_result="212 to 213 °C"
molecule="COc1cc(/C=C/C(=O)Nc2ccccc2C(=O)O)ccc1OC1CCCC1 [Analogue 26]" measured_property="melting point" experimental_result="96 to 98 °C"

Turning now to a further record.
Param item = C#CCCCCOc1ccc(/C=C/C(=O)Nc2ccccc2C(=O)O)cc1OC [Analogue 33] ; retrieve measured melting point. 148 to 150 °C
